# tested_target: Prostaglandin E2 receptor EP2 subtype (Homo sapiens) (UniProt P43116)
# Sequence (P43116 whole entry, looked up): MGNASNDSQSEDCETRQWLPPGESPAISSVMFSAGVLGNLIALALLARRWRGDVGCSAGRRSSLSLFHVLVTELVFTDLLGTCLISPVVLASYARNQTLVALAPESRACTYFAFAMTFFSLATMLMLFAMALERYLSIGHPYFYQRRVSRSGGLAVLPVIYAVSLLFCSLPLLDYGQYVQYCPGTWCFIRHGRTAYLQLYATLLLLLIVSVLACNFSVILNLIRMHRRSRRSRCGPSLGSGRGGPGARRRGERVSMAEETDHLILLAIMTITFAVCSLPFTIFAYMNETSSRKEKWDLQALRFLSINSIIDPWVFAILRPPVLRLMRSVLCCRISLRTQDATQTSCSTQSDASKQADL
# measurement_notes: compounds shifting PGE2 potency at EP2 – cell-based, human EP2, PGE2 EC50 shift, dose response (AID 1421)
# condition_description: EP2-expressing cells, PGE2 EC50 shift by compound; at 20 µM
Out of some 1,300 compounds screened, about 140 (11%) were called active. A selection follows. Measured potencies and affinities stand elsewhere.
observable: PGE2 EC50 with compound

Worked examples follow.
>  <compound>
Cc1ccccc1NC1=C(C(=O)c2ccccc2)N(C)S(=O)(=O)c2ccccc21

>  <value_reported>
0.78 nM (inactive)

$$$$
>  <compound>
Brc1ccccc1Cn1c(-c2cscn2)nc2ccccc21

>  <value_reported>
0.39 nM (inactive)

$$$$
>  <compound>
Cc1cc(NC(=O)C2=C(O)c3ccccc3S(=O)(=O)N2C)no1

>  <value_reported>
0.77 nM (inactive)

$$$$
>  <compound>
CCOC(=O)c1c(NC(=O)CN2CCN(C(=O)c3ccco3)CC2)sc2c1CCCC2

>  <value_reported>
0.59 nM (inactive)

$$$$
>  <compound>
COc1cccc(-c2nc(N3CC(C)CC(C)C3)c3ccccc3n2)c1O (configuration not stated)

>  <value_reported>
0.13 nM (inactive)

$$$$

Could I get PGE2 EC50 with compound for every one of these entries?
1. Cc1noc(C)c1CSc1ncnc2sc3c(c12)CCC(C)C3 (configuration not stated)
2. CSc1ncnc2sc(C)c(C)c12
3. CCOC(=O)CSc1nc(Cc2ccccc2)nc2ccccc12
4. Cc1ccccc1/C=C/c1nc2ccccc2c(=O)n1CCc1ccccc1

1: 0.4 nM (inactive); 2: 0.56 nM (inactive); 3: 0.35 nM (inactive); 4: 0.19 nM (inactive)

Batch: PGE2 EC50 with compound for all items listed.
1. Cc1cccc(/N=C/c2c(O)ccc3oc4c(c23)CCCC4)n1
2. Oc1ccccc1-c1nc(N2CCCC2)c2ccccc2n1

1. 1.21 nM (inactive)
2. 0.3 nM (inactive)

Dear colleague, could you send me PGE2 EC50 with compound for each of the items below? Thanks.
1. CC1CCN(c2ccccc2NC(=O)c2ccc(F)cc2)CC1
2. O=c1c(O)c(-c2ccccc2)oc2ccc3occc3c12
3. CCOC(=O)c1c(NC(=O)CN(CC)CC)sc2c1CCN(C(=O)OCC)C2
4. COc1ccc(-c2nc3ccccc3n2Cc2ccccc2)cc1
5. CCOC(=O)CC(=O)CSc1nc(-c2ccc3c(c2)OCO3)cc(C(F)(F)F)c1C#N

1: 0.3 nM (inactive); 2: 0.43 nM (inactive); 3: 0.29 nM (inactive); 4: 0.33 nM (inactive); 5: 1.22 nM (inactive)
